assay: Half life of the compound at C7 position in acetone-d6/D2O/CF3CO2H at 0.01 M by NMR spectroscopy analysis; type: physicochemical
measured-property: t1/2 (h)
Response body: numeric value in h, unit text excluded.

{"structure-notation": "CCCCCCCCO[Si](OCCCCCCCC)(OCCCCCCCC)O[C@H]1C[C@H]2OC[C@@]2(OC(C)=O)[C@H]2[C@H](OC(=O)c3ccccc3)[C@]3(O)C[C@H](OC(=O)[C@H](O)[C@@H](NC(=O)c4ccccc4)c4ccccc4)C(C)=C([C@@H](OC(C)=O)C(=O)[C@]12C)C3(C)C", "t1/2 (h)": 2.5}

Then this compound:
Query: Need t1/2, item CCCCCCCCO[Si](OCCCCCCCC)(OCCCCCCCC)O[C@H]1C[C@H]2OC[C@@]2(OC(C)=O)[C@H]2[C@H](OC(=O)c3ccccc3)[C@]3(O)C[C@H](OC(=O)[C@H](O[Si](OCCCCCCCC)(OCCCCCCCC)OCCCCCCCC)[C@@H](NC(=O)c4ccccc4)c4ccccc4)C(C)=C([C@@H](OC(C)=O)C(=O)[C@]12C)C3(C)C
Reply: 3.33

====

Consider the following molecules and their measured IC50 readings.
tested on: MDA-MB-231; test: Cytotoxicity against human MDA-MB-231 cells after 72 hrs by MTT assay; type: functional, cell-based; conditions: MDA-MB-231, 72 h
Write it as a number; the unit nM goes unstated.

Query: IC50 lookup needed for CC(=O)O[C@@]12CO[C@@H]1C[C@H](O)[C@@]1(C)C(=O)[C@H](O)C3=C(C)[C@@H](OC(=O)[C@H](O)[C@@H](NC(=O)OC(C)(C)C)c4ccccc4)C[C@@](O)([C@@H](OC(=O)c4ccccc4)[C@H]21)C3(C)C.O.O.O , thanks.
Reply: 1

Query: Need IC50, item CC[Si](CC)(CC)O[C@@H](C(=O)O[C@H]1C[C@@]2(O)[C@@H](OC(=O)c3ccccc3)[C@@H]3[C@]4(OC(C)=O)CO[C@@H]4C[C@H](O)[C@@]3(C)C(=O)[C@H](OC(C)=O)C(=C1C)C2(C)C)[C@@H](NC(=O)c1ccccc1)c1ccccc1
Reply: 220

Query: Dear colleague, I am looking for the recorded IC50 of the following molecule: CCO[Si](O[C@@H](C(=O)O[C@H]1C[C@@]2(O)[C@@H](OC(=O)c3ccccc3)[C@@H]3[C@]4(OC(C)=O)CO[C@@H]4C[C@H](O)[C@@]3(C)C(=O)[C@H](OC(C)=O)C(=C1C)C2(C)C)[C@@H](NC(=O)c1ccccc1)c1ccccc1)(OC(C)(C)C)OC(C)(C)C
Reply: 260

Query: Using the record for CC(=O)O[C@@]12CO[C@@H]1C[C@H](O)[C@@]1(C)C(=O)[C@H](O)C3=C(C)[C@@H](OC(=O)[C@H](O[Si](OC(C)C)(OC(C)C)OC(C)C)[C@@H](NC(=O)OC(C)(C)C)c4ccccc4)C[C@@](O)([C@@H](OC(=O)c4ccccc4)[C@H]21)C3(C)C , report its IC50.
Reply: 0.2

====

Items are presented alongside their recorded Retention_time.
experiment: Retention time of the compound up to by LC/MS analysis; type: physicochemical
Write the value in min as a bare number.

{"structure-notation": "CC(=O)O[C@H]1C(=O)[C@@]2(C)[C@H]([C@H](OC(=O)c3ccccc3)[C@]3(O)C[C@H](OC(=O)[C@H](O)[C@@H](NC(=O)c4ccccc4)c4ccccc4)C(C)=C1C3(C)C)[C@]1(OC(C)=O)CO[C@@H]1C[C@@H]2O", "measured-property": "Retention_time", "endpoint-result": 10.5}
{"structure-notation": "CC(=O)O[C@H]1C(=O)[C@@]2(C)[C@H]([C@H](OC(=O)c3ccccc3)[C@]3(O)C[C@H](OC(=O)[C@H](O[Si](OC(C)C)(OC(C)C)OC(C)C)[C@@H](NC(=O)c4ccccc4)c4ccccc4)C(C)=C1C3(C)C)[C@]1(OC(C)=O)CO[C@@H]1C[C@@H]2O", "measured-property": "Retention_time", "endpoint-result": 15.4}
{"structure-notation": "CC[Si](CC)(CC)O[C@@H](C(=O)O[C@H]1C[C@@]2(O)[C@@H](OC(=O)c3ccccc3)[C@@H]3[C@]4(OC(C)=O)CO[C@@H]4C[C@H](O)[C@@]3(C)C(=O)[C@H](OC(C)=O)C(=C1C)C2(C)C)[C@@H](NC(=O)c1ccccc1)c1ccccc1", "measured-property": "Retention_time", "endpoint-result": 15.4}

Now for another entry.
Query: # lookup: Retention_time of CCCCCCCCO[Si](OCCCCCCCC)(OCCCCCCCC)O[C@@H](C(=O)O[C@H]1C[C@@]2(O)[C@@H](OC(=O)c3ccccc3)[C@@H]3[C@]4(OC(C)=O)CO[C@@H]4C[C@H](O)[C@@]3(C)C(=O)[C@H](OC(C)=O)C(=C1C)C2(C)C)[C@@H](NC(=O)c1ccccc1)c1ccccc1
Reply: 22.1
